Entry source: PubChem BioAssay

The molecules listed here are annotated with their z-score.
Experiment: A549 cell viability effects, profiling panel, calcein-AM fluorescence, 48 h, basal (AID 1162); further: test concentration not given here
Settings: higher = more signal
QUANTITY NAME: z-score

MOLECULE: CC(C)[Si](C#Cc1ccc(Oc2ccccc2)cc1)(O[Si](C#Cc1ccc(Oc2ccccc2)cc1)(C(C)C)C(C)C)C(C)C
VALUE REPORTED: 0.271
--
MOLECULE: COC(=O)[C@@]1(Cc2ccc(F)cc2)[C@H]2c3cc(C(=O)N(C)C)n(Cc4cc(F)c(F)c(F)c4)c3C[C@H]2CN1C(=O)c1ccccc1
VALUE REPORTED: -0.917
--
MOLECULE: CCCC[C@@H]1C[C@H]1[C@@H](NC(=O)c1ccccc1)c1ccc(C(=O)OC)cc1
VALUE REPORTED: -0.992
--
MOLECULE: COC(=O)[C@@]1(Cc2ccc(OC)cc2)[C@@H]2C(=CC(=O)[C@H]2CC(=O)C(=O)N2CCCC2)CN1C(=O)c1ccccc1
VALUE REPORTED: -0.0504
--
MOLECULE: CO[C@H]1O[C@H](CO)[C@@H](OC(=O)Nc2cccc(F)c2)[C@H](OC(=O)Nc2ccccc2)[C@@H]1OC(=O)Nc1ccccc1
VALUE REPORTED: -1.61
--
MOLECULE: CN(C)CCCCCCNC(=O)[C@H]1C[C@H]2C(=O)N3CCC[C@H]3C(=O)N2[C@H]1c1ccc(O)cc1
VALUE REPORTED: -0.79
--
MOLECULE: CCCC[C@H]1OB(O)C[C@H]2C1=C(COC)Cn1c(=O)n(-c3ccccc3)c(=O)n12
VALUE REPORTED: 0.0913
--
MOLECULE: COc1ccc([Si](C)(C)[C@@H]2[C@@H](CCO)O[C@]3(C(=O)N(Cc4ccc(N(C=O)c5ccccc5)cc4)c4ccccc43)[C@H]2C)cc1
VALUE REPORTED: -0.844
--
MOLECULE: CC1CC/C=C\[C@H]2OC34C=CCN(C(C)(C)C)C(=O)[C@H]3N(CCO)C(=O)[C@@H]4C2C(=O)O1 (stereo partly drawn)
VALUE REPORTED: -0.986
--
MOLECULE: CC(C)[Si]1(C(C)C)O[C@@H](c2ccccc2)c2cc(-c3ccc(-c4ccc(Cl)c(Cl)c4)o3)nc(-c3ccccc3)c21
VALUE REPORTED: 0.272
--
MOLECULE: CCOC(=O)C[C@H]1[C@H](OC(=O)c2ccc(C(=O)c3ccccc3)cc2)[C@@H](NC(=O)CC(C)C)c2cc(OCCCO)ccc2N1C(=O)c1ccc2ccccc2n1
VALUE REPORTED: 0.713
--
MOLECULE: C=C[C@H](CO)NS(=O)(=O)c1ccc(Br)cc1
VALUE REPORTED: 1.52
--
MOLECULE: O=C1C2C=CC(C(O)Cc3ccccc3)N(n3cnnc3)C2C(=O)N1Cc1ccccc1 (stereo not drawn)
VALUE REPORTED: -0.182
--
MOLECULE: C=CCOC(=O)[C@H]1[C@@H]2C(=O)O[C@@H](c3ccccc3)[C@@H](c3ccccc3)N2[C@@H](c2ccc(OCCOC(=O)[C@@H]3C[C@@H]4C(=O)N[C@@H](CCCCNC(C)=O)C(=O)N4[C@@H]3c3ccc(O)cc3)cc2)[C@]12C(=O)Nc1ccccc12
VALUE REPORTED: -0.41
--
MOLECULE: C=CC[C@]1(C(=O)NCc2ccccc2)N=C(c2ccc(OCCCO)cc2)O[C@H]1c1ccccc1N=[N+]=[N-]
VALUE REPORTED: -1.2
--
MOLECULE: O=C1C[C@@](C(=O)NCCN2CCOCC2)(c2ccc([N+](=O)[O-])cc2)[C@@H](c2ccc(CO)cc2)N1CC12CC3CC(CC(C3)C1)C2
VALUE REPORTED: -2.97
--
MOLECULE: C=CCOC(=O)[C@H]1[C@@H]2C(=O)O[C@@H](c3ccccc3)[C@@H](c3ccccc3)N2[C@@H](c2ccc(OCCOC(=O)[C@@H]3C[C@@H]4C(=O)N[C@@H](CC(C)C)C(=O)N4[C@@H]3c3ccc(O)cc3)cc2)[C@]12C(=O)Nc1ccccc12
VALUE REPORTED: -1.02
--
MOLECULE: C=CCC(OC(C)=O)[C@@H]1[C@@H](N(Cc2cc3ccccc3o2)C(=O)c2cccc3ccccc23)c2cc(OCCCO)ccc2N1C(=O)c1ccc(-c2ccccc2)cc1 (stereo partly drawn)
VALUE REPORTED: 0.067
--
MOLECULE: O=C1N[C@@H](Cc2ccccc2)C(=O)N2[C@@H]1C[C@@H](C(=O)O)[C@H]2c1cccc(OCCO)c1
VALUE REPORTED: 0.432
--
MOLECULE: COc1ccc([Si](C)(C)[C@H]2[C@H](CC(=O)N3Cc4ccccc4C[C@H]3CO)O[C@@]3(C(=O)N(Cc4cccc(N5CCC5=O)c4)c4ccccc43)[C@@H]2C)cc1
VALUE REPORTED: 0.0575
--
MOLECULE: C=CC[C@@]12N=C(c3ccc(OCCCO)cc3)O[C@@H]1c1ccccc1N(C)C2=O
VALUE REPORTED: -0.588
--
MOLECULE: CCCCC(CC)C(O)C1C=CC2C(=O)N(Cc3ccccc3)C(=O)C2N1n1cnnc1 (stereo not drawn)
VALUE REPORTED: -0.682
--
MOLECULE: NC(=O)NCC#Cc1ccc2c(c1)[C@]1(C(=O)N2)[C@H](c2ccc(O)cc2)N2[C@H](c3ccccc3)[C@H](c3ccccc3)OC(=O)[C@H]2[C@@H]1C(=O)O
VALUE REPORTED: 0.517
--
MOLECULE: COCC(=C=CC[C@@H](O)c1cccc(OCCO)c1)C[C@@H](O)c1ccccn1
VALUE REPORTED: 0.492
--
MOLECULE: COC(=O)[C@H](Cc1ccccc1)N1CC2=C[C@@H](C3CC3)n3c(=O)n(C)c(=O)n3[C@H]2[C@@H]1[C@@H](O)Cc1ccccc1
VALUE REPORTED: 1.97
--
MOLECULE: CC(C)NC(=O)[C@@]1(C)c2ccccc2C(=O)N(Cc2cc(C(F)(F)F)cc(C(F)(F)F)c2)[C@H]1c1ccc(CO)cc1
VALUE REPORTED: 1.25
--
MOLECULE: COCCCNC(=O)[C@@]1(C)c2ccccc2C(=O)N(C(C)C)[C@H]1c1ccc(CO)cc1
VALUE REPORTED: -0.276
--
MOLECULE: C[N+](C)(C)CCCCNC(=O)[C@H]1C[C@H]2C(=O)N3CCC[C@H]3C(=O)N2[C@H]1c1cccc(OCCO)c1
VALUE REPORTED: -0.591
